# Test system: human LX2 stellate cells
# TEST_DESCRIPTION: MTT cell viability, LX2
# Assay type: cell-based
# APPLIED_CONDITIONS: LX2, 48 h, up to 30 µM
READOUT_NAME: pEC50
Answers are plain numbers, as −log10 of the molar value.

For the compound COc1cc(/C=C/C(=O)CC(=O)/C=C/c2ccc(O)c(OC)c2)ccc1O , report pEC50. 4.64
